- assayed_system: HLA-A*26:01 (human)
- assay_remarks: radioligand competition, purified MHC
- study_conditions: remark: other sources report otherwise
# IC50 listing for each entry below
measured_attribute: IC50

>>> print(df.to_string())
                                     binder   result
0  KRVDWTIEY (modifications not checked) [… (SEQ ID NO: 29)]  > 70 µM
1  FGDDTVIEV (modifications not checked) [… (SEQ ID NO: 23)]  > 70 µM

Origin of values: patent US20220088180A1
